Values compiled from patent US20060058231A1.

Target: T1, BMPRII receptor-Fc fusion (UniProt Q13873 27-151, limits assumed)
T1 construct: BMP receptor-Fc fusion used at 5 ug/mL
T1 sequence (looked up): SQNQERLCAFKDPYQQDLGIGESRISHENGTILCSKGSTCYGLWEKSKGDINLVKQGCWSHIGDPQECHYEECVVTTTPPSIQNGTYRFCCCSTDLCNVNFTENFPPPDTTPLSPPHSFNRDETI
Experiment: ELISA-like plate assay, captured BMP-7 from conditioned media, receptor-Fc detection
Recorded BMPRII binding (relative to wild type = 1.0), one value per entry.
property_name: BMPRII binding (relative to wild type = 1.0)

# binder, test_result
records = [
    ("BMP-7 variant I94Q (ligand, In conditioned media; numbering on mature BMP-7) STGGKQRSQNRSKTPKNQEALRMASVAENSSSDQRQACKKHELYVSFRDLGWQDWIIAPEGYAAYYCEGECAFPLNSYMNATNHAIVQTLVHFQNPETVPKPCCAPTQLNAISVLYFDDSSNVILKKYRNMVVRACGCH", "1.32 relative to wild type"),
    ("BMP-7 variant F93T (ligand, In conditioned media; numbering on mature BMP-7) STGGKQRSQNRSKTPKNQEALRMASVAENSSSDQRQACKKHELYVSFRDLGWQDWIIAPEGYAAYYCEGECAFPLNSYMNATNHAIVQTLVHTINPETVPKPCCAPTQLNAISVLYFDDSSNVILKKYRNMVVRACGCH", "0.81 relative to wild type"),
    ("BMP-7 variant F93D (ligand, In conditioned media; numbering on mature BMP-7) STGGKQRSQNRSKTPKNQEALRMASVAENSSSDQRQACKKHELYVSFRDLGWQDWIIAPEGYAAYYCEGECAFPLNSYMNATNHAIVQTLVHDINPETVPKPCCAPTQLNAISVLYFDDSSNVILKKYRNMVVRACGCH", "0.62 relative to wild type"),
    ("BMP-7 variant M23N (ligand, In conditioned media; numbering on mature BMP-7) STGGKQRSQNRSKTPKNQEALRNASVAENSSSDQRQACKKHELYVSFRDLGWQDWIIAPEGYAAYYCEGECAFPLNSYMNATNHAIVQTLVHFINPETVPKPCCAPTQLNAISVLYFDDSSNVILKKYRNMVVRACGCH", "0.9 relative to wild type"),
    ("BMP-7 variant Q53G (ligand, In conditioned media; numbering on mature BMP-7) STGGKQRSQNRSKTPKNQEALRMASVAENSSSDQRQACKKHELYVSFRDLGWGDWIIAPEGYAAYYCEGECAFPLNSYMNATNHAIVQTLVHFINPETVPKPCCAPTQLNAISVLYFDDSSNVILKKYRNMVVRACGCH", "1.37 relative to wild type"),
    ("BMP-7 variant I86D (ligand, In conditioned media; numbering on mature BMP-7) STGGKQRSQNRSKTPKNQEALRMASVAENSSSDQRQACKKHELYVSFRDLGWQDWIIAPEGYAAYYCEGECAFPLNSYMNATNHADVQTLVHFINPETVPKPCCAPTQLNAISVLYFDDSSNVILKKYRNMVVRACGCH", "1.31 relative to wild type"),
    ("BMP-7 variant I86E (ligand, In conditioned media; numbering on mature BMP-7) STGGKQRSQNRSKTPKNQEALRMASVAENSSSDQRQACKKHELYVSFRDLGWQDWIIAPEGYAAYYCEGECAFPLNSYMNATNHAEVQTLVHFINPETVPKPCCAPTQLNAISVLYFDDSSNVILKKYRNMVVRACGCH", "1.13 relative to wild type"),
]
